# EXPERIMENTAL_PROTOCOL: Carotenoid content in fish flesh of rainbow trout by HPLC
# Format: in vivo, Oncorhynchus mykiss
# TEST_CONDITIONS: rainbow trout (Oncorhynchus mykiss), fish flesh, oral, 64.6 mg/kg feed, Synthetic product division, rainbow trout, average of 12 fish
VALUE_TYPE: concentration at 3 months
Could you give the number and then its unit, please?

Briefly, concentration at 3 months measured for CC1=C(/C=C/C(C)=C/C=C/C(C)=C/C=C/C=C(C)/C=C/C=C(C)/C=C/C2=C(C)C(=O)[C@@H](O)CC2(C)C)C(C)(C)C[C@H](O)C1=O [Astaxanthin] : 6300 ng/g

====

# EXPERIMENTAL_PROTOCOL: Carotenoid content in fish flesh of silver salmon by HPLC
# Type: in vivo, Oncorhynchus kisutch
# TEST_CONDITIONS: silver salmon (Oncorhynchus kisutch), fish flesh, oral, 43.2 mg/kg feed, Fermented product division, silver salmon, average of 10 fish
VALUE_TYPE: concentration at 6 months
Could you give the number and then its unit, please?

Briefly, concentration at 6 months measured for CC1=C(/C=C/C(C)=C/C=C/C(C)=C/C=C/C=C(C)/C=C/C=C(C)/C=C/C2=C(C)C(=O)[C@@H](O)CC2(C)C)C(C)(C)C[C@H](O)C1=O : 10400 ng/g
